From: ChEMBL document CHEMBL1961873

target: Casein kinase I isoform gamma-1 (Homo sapiens); conditions: at 0.1 µM;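 note: reported as mean inhibition, part of GSK PKIS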
Listed next: entries and their corresponding inhibition.
measured-metric: inhibition

{"columns": ["smiles-structure", "measured-metric", "endpoint-result"],
 "data": [
  ["NC(=O)c1ccc(-c2nc(-c3ccccn3)c(-c3ccc4c(c3)OCO4)[nH]2)cc1", "inhibition", "1.97%"],
  ["COc1cc2ncn(-c3cc(OCc4ccccc4Cl)c(C(N)=O)s3)c2cc1OC", "inhibition", "0.19%"],
  ["CS(=O)(=O)CCN(CC#N)Cc1ccc(-c2ccc3ncnc(Nc4ccc(OCc5cccc(F)c5)c(Cl)c4)c3c2)o1", "inhibition", "-2.14%"],
  ["CCn1c(-c2nonc2N)nc2ccncc21", "inhibition", "0.65%"],
  ["Nc1nc(-c2ccc3c(c2)C(=Cc2cc(Br)c(O)c(Br)c2)C(=O)N3)cs1", "inhibition", "-1.34%"]
]}
